Assay: yeast display, Sf9 membrane polyspecificity reagent, FACS + sequencing; frameworks hold sequencing errors

{"Sequence Chain": "QVQLVESGGGLVQAGGSLRLSCAASGFIFPYYTMGWYGQARGKERELVAAISYSGGSTYYADSVKGRFTISRDKAKNTVYLQMNSLKPEDTAVYYCNADPPLIVYKVWFLLDYWGQGTQVTVTS", "polyreactivity (PSR sort gate)": "high polyreactivity"}
{"Sequence Chain": "QVQLVESGGGLVQAGGSLRLSCAASGRIFRFNAMGWYRQAPGKERELVAAITGSGGTTFYADSVKGRFTISRDNAKNTVYLQMNSLKPEDTAVYYCARQRTVKKYYYWGQGTQVTVSS", "polyreactivity (PSR sort gate)": "high polyreactivity"}

###

Assay: yeast display, Sf9 membrane polyspecificity reagent, FACS + sequencing; frameworks hold sequencing errors
Parameter Measured: polyreactivity (PSR sort gate)

{"Sequence Chain": "QVQLVESGGGLVQAGGSLRLSCAASGSIFNSNGMGWYRPAPGKERELVAAITGGGSTNYADSVKGRFTISRDNAKNTVYLQMNSLKPEDTAVYYCAARPLRTDWAYYYWGQGTQVTVSS", "Assay Result": "low polyreactivity"}
{"Sequence Chain": "QVQLVESGGGLVQAGGSLRLSCAGSGSIFGVYDLGWYRQAPGKERELVAVINSNGGSTYYADSVKGRFTISRDNAKNTVYLQMNSLKPEDTAVYYCAADYQSYVYIGYGYWGQGTQVTVSS", "Assay Result": "low polyreactivity"}
{"Sequence Chain": "QVQLVESGGGLVQAGGSLRLSCAASGRIFAYNAMGWYREAPGKERELVASITSGGGRTYYADSVKGRFTISRDNAKNTVYLQMNSLKPEDTAVYYCNVDVSLSKFGSVLYDYWGQGTQVTVSS", "Assay Result": "low polyreactivity"}
{"Sequence Chain": "QVQLVESGGGLVQAGGSLRLSCAASGIIFYDYVMGWYRQAPGKERELVTAISSNGGSTYYADSVKGRFTISRDNAKNTVYLQMNRLKPEDTAVYYCAAEGKSYPWPWYFDYWGQGTQVTVSS", "Assay Result": "high polyreactivity"}
{"Sequence Chain": "QVQLVESGGGLVQAGGSLRLTCAASGFIFNFYAMGWYRQAPGKERELVAAISRNGGSTYYADSVKGRFTISRDNAKNTVYLQMNSLKPEDTAVYYCNAGGSYGDFGYWGKGTQVTVSS", "Assay Result": "high polyreactivity"}
{"Sequence Chain": "QVQLVESGGGLVQAGGSLRLSCAASGRIFFNAMGWYRQAPGKEREFVAAIRTSGGTTYYADSVKGRFTISRDNAKNTVYLQMNSLKPEDTAVYYCAAWRWYYPVRNRAQYVRGDYWGQGTQVTVSS", "Assay Result": "high polyreactivity"}
{"Sequence Chain": "QVQLVESGGGLVQAGGSLRLSCAASGSTFVYYAMGWYRQAPGKERELVAASTYADSVKGRFTISRDNAKNTVYLQMNSLKPEDTAVYYCAADFVSAYFTIYDYWGQGTQVTVSS", "Assay Result": "low polyreactivity"}
{"Sequence Chain": "QVQLVESGGGLVQAGGSLRLSCAASGLTFSYYAMGWYRQAPGKERELVAAISSSGGSTYYADSVKGRFTISRDYAKNTVYLQMTSLKPEDTAVYYCATAASPVRKRYDYWGQGTQVTVSS", "Assay Result": "high polyreactivity"}
{"Sequence Chain": "QVHLVESGGGLVQAGGSLRLSCAASGSTFTYYAMGWYRQAPGKERELVAAITSGGSTNYADSVKGRFTISRDNAKNTVYLQMNSLKPEDTAVYYCAGDGQNFQFYVVSEEYDYWGQGTQVTVSS", "Assay Result": "low polyreactivity"}
{"Sequence Chain": "QVQLVESGGGLVQAGGSLRLSCAASGSIFAYNAMGRYRQAPGKEREYVAAISQSGGRTYYADSVKGRFTISRDTSKNTVYLQMNSLKPEDTAVYYCATDGIRLTRHRDYDYWGQGTQVTVSS", "Assay Result": "low polyreactivity"}
{"Sequence Chain": "QVQLVESGGGLVQAGGSLRLSCAASGNIFYKYAMGWYRQAPGKERELVAAITWRVVRTYYADSVKGRFTISRDNAKNTVYLQMNSLKPEDTAVYYCAALSRQSGDYWGQGTQVTVSS", "Assay Result": "high polyreactivity"}
{"Sequence Chain": "QVQIVESGGGLVQAGGSLRLSCAASGSTFFANTMGWYRQAPGKERELVAAISWSSVRTYYADSVKGRFTISRDHAKNTVYLQMNSLKPEDTAVYYCAAYSRFRYDYWGQGTQVTVSS", "Assay Result": "high polyreactivity"}
{"Sequence Chain": "QVQLVESGGGLVQAGGSLRLSCAASGSIFGYYAMGWYRQAPGKERELVASITSDTSTNYADSVKGRFTISRDNAQNTVYLQMNSLKPEDTAVYYCNARIAKWKRGYSSTFDYWGQGTQVTVSS", "Assay Result": "low polyreactivity"}
{"Sequence Chain": "QVQLVEAGGGLVQAGGSLRLSCAPSGFTFGSYARRCYRQAPGKERELVAAIRLSGGSTTYADSVKGRFTITRDNEKKTVYLQMNSLKAEDTAVYYCAARVHVGYYWTFYYWGQGTQVTVSS", "Assay Result": "high polyreactivity"}
{"Sequence Chain": "QVQLVESGGGLVQAGGSLRLSCAASGLTFPDNAMGWYRQAPGKERELVAAITIDGSTYYADSVKGRFTISRDNAKNTVYLQMNSLKPEDTSVYYCNALVGVPYAMYYWGQGTQVTVSS", "Assay Result": "low polyreactivity"}
{"Sequence Chain": "QVQLVESGGGLVQAGVSLRLSCAASGRIFVGYAMGWYRQAPGKERELVAGIRYSGGSTYYADSVKGRFTISRDNAKNTVYLQMNSLKPEDTAVYYCATQVWHYAGRPNYKYDYWGQGTQVTVSS", "Assay Result": "low polyreactivity"}
{"Sequence Chain": "QVQLVESGGGLVQAGGSLRLSCAASGRTFDRNAMGWYRQAPGKERELVAAITSRGGRTYYADSVKGRFTISRDNAKNTVYLQMNSLKPEDTAVYYCAAQGRGHRFGDSRDNYWGQGTQVTVSS", "Assay Result": "high polyreactivity"}
{"Sequence Chain": "QVQLVETGGRLVQAGGSLRVSCAASGITFECYAMGWSRQATGKERELVAAIRSSGTSTYYADSVKGRFTISRDNAKNTVYLQMMSLKPEDTAVYYCNLARSSSRYDYWGQGTQVTVSS", "Assay Result": "low polyreactivity"}
{"Sequence Chain": "QVQLVESGGGLVQAGGSLRLSCAASGRIFYPYAMGWYRQAPGKERELVAAISGSGARTYYADSVKGRFTISRDNAKHTVYLQMNSLKPEDTAVYYCARYQSNSDDYWGQGTQVTVSS", "Assay Result": "high polyreactivity"}
{"Sequence Chain": "QVQLVESGGGLVQAGGSLRLSCAASGYIFRSYAMGWYRQAPGKERELVATISWIGGGTSYADSVKGRFTISRDNAKNTVYLQMNSLKPEDTAVYYCAAGPWAYGRRHAYYSRSFDYWGQGTQVTVSS", "Assay Result": "high polyreactivity"}
{"Sequence Chain": "QVQLVESGGGLVQAGGSLRLSCAASGRTFFQYAMGWYRQAPGKERELVAAIRWSDSTYYADSVKGRFTISRDNAKNTVYLQMNSLKPEDTAVYYCAAPRVSQYSTKKYDYWGQGTQVTVSS", "Assay Result": "low polyreactivity"}
